Attribution: patent US20050101595A1

test system: HCT-116 cell line; assay: Inhibition of cell growth, tetrazolium salt (MTT) assay; format: cell-based; details: Homo sapiens, HCT-116, 120 h, first HCT-116 column (c4); MTT, three to five days; read-out: HCT-116 IC50
Where a name gives a salt, the structure may show the parent alone.
ENDPOINT LABEL: IC50 (nM)

>>> print(df.to_string())
                                   molecule  endpoint_label  observed
0  Nc1nc(NC2CCN(S(=O)(=O)Cc3ccccc3)CC2)sc1C(=O)c1c(F)cccc1F            IC50       260
1  CC(C)(C)NCCOc1ccc(S(=O)(=O)N2CCC(Nc3nc(N)c(C(=O)c4c(F)cccc4F)s3)CC2)cn1 [Example H20, Hydrochloride Salt]            IC50       380
2  C[C@@H]1CN(Cc2ccc(S(=O)(=O)N3CCC(Nc4nc(N)c(C(=O)c5c(F)cccc5F)s4)CC3)cc2)C[C@H](C)N1 [Example J10, Hydrochloride Salt]            IC50       160
